experiment: Rat liver microsomal metabolic stability; type: in vitro ADME; details: rat liver microsomes, calculated from T1/2, fu defaulted to 1; read-out: CL(liver)
measurement type: CLint scaled at 1 µM

- C[C@@H](Nc1nnc(N)c2cc(=O)n(C3(C)CC3)cc12)c1cccc(C(F)F)c1F.O=CO [Example 74, formate]: < 7.23 mL/min/kg
- C[C@@H](Nc1nnc(N2CCN(C3CCCC3)CC2)c2cc(=O)n(N3CCOCC3)cc12)c1cccc(C(F)F)c1F: < 7.23 mL/min/kg

The record that follows has no CLint scaled at 1 µM shown yet.
CLint scaled at 1 µM in this record for "C[C@@H](Nc1nnc(N2CCN(C)CC2)c2cc(=O)n(N3CCOCC3)cc12)c1cccc(C(F)F)c1F" : < 7.23 mL/min/kg

* * *

Answer each item with its documented half-life at 1 µM.
test: Rat liver microsomal metabolic stability; type: in vitro ADME; conditions: rat liver microsomes, NADPH, 37°C
Answers are plain numbers, in h.

• CNc1nnc(N[C@H](C)c2cccc(C(F)F)c2F)c2cn(C3CC3)c(=O)cc12 [Example 13] = 3.97
• C[C@@H](Nc1nnc(NC2CC2)c2cc(=O)n(C3(C)CC3)cc12)c1cccc(C(F)F)c1F [Example 10] = 0.483
• C[C@@H](Nc1nnc(N2CCN(C3CCCC3)CC2)c2cc(=O)n(C3(C)CC3)cc12)c1cccc(C(F)F)c1F [Example 221] = 1.12

# return half-life at 1 µM for each item in the list
1. CC(C)N1CCN(c2nnc(N[C@H](C)c3cccc(C(F)F)c3F)c3cn(C4(C)CC4)c(=O)cc23)CC1 [Example 217]
2. C[C@@H](Nc1nnc(N2CCNCC2)c2cc(=O)n(C3(C)CC3)cc12)c1cccc(C(F)F)c1F [Example 78]
3. C[C@@H](Nc1nnc(N2CCN(C(C)(C)C)CC2)c2cc(=O)n(C3(C)CC3)cc12)c1cccc(C(F)F)c1F.O=CO [Example 222]
4. CCNc1nnc(N[C@H](C)c2cccc(C(F)(F)F)c2C)c2cn(C3(C)CC3)c(=O)cc12 [Example 97]

[4.33, 4.22, 3.63, 1.75]

* * *

Biological target: SOS1 (Homo sapiens)
Sequence (Q07889 1-1333): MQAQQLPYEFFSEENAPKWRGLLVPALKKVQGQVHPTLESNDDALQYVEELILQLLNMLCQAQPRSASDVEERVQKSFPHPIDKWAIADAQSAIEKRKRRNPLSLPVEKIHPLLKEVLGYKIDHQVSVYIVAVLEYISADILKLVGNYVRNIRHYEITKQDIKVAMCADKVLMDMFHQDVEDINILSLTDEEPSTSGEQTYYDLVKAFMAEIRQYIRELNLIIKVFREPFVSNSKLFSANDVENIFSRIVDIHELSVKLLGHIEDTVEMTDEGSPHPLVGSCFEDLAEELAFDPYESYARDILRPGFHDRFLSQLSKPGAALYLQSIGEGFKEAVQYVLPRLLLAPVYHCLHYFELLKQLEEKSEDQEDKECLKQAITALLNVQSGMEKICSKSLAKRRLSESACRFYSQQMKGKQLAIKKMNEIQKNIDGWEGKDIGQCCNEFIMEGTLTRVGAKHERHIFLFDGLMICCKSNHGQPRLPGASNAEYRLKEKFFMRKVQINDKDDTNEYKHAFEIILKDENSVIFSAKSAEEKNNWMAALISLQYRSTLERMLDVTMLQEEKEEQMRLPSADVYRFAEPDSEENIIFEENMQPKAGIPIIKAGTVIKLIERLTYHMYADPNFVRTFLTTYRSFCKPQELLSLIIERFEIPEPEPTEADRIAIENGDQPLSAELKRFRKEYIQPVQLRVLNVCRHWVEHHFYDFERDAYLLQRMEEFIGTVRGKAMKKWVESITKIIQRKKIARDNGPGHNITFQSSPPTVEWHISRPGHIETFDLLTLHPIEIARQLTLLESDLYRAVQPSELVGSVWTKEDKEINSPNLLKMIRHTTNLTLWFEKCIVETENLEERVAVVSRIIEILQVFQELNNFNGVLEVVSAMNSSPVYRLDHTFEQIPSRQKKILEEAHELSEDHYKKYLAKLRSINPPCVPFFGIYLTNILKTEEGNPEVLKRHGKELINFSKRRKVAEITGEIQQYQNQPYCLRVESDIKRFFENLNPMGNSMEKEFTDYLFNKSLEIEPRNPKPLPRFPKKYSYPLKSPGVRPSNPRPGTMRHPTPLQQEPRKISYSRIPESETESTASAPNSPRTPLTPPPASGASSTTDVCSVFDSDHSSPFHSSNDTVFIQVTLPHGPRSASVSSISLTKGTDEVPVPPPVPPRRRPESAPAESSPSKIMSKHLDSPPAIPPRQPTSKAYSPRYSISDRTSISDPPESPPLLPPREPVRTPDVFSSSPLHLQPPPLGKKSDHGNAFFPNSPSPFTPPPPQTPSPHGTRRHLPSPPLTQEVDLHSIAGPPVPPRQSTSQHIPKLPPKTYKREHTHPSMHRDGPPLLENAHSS
Where a name gives a salt, the structure may show the parent alone.
measurement type: pIC50
Numbers only, as −log10 of the molar value.

Worked cases, pIC50 given:
* CNc1nnc(N[C@H](C)c2cccc(C#N)c2C)c2cn(C3CC3)c(=O)cc12 | 8.30
* C[C@@H](Nc1nnc(N2CCN(C3CC3)CC2)c2cc(=O)n(N3CC4CCCC4C3)cc12)c1cccc(C(F)F)c1F (stereo partly shown) | 7.97
* CCNc1nnc(N[C@H](C)c2cccc(C(F)F)c2F)c2cn(C3(C)CC3)c(=O)cc12 | 8.33
* C[C@@H](Nc1nnc(N2CCN(C)CC2)c2cc(=O)n(C3(C)CC3)cc12)c1cccc(C(F)(F)F)c1F | 8.38
* Cc1c([C@@H](C)Nc2nnc(N(C)C)c3cc(=O)n(C4CC4)cc23)cccc1C(F)(F)F | 7.93
* CNc1nnc(N[C@H](C)c2cccc(C(F)F)c2F)c2cn(C3CC3)c(=O)cc12 | 8.34

// input: 6 molecules below; output: pIC50 for each
1. C[C@@H](Nc1nnc(N2CCN(C(C)(C)C)CC2)c2cc(=O)n(C3CC(F)(F)C3)cc12)c1cccc(C(F)F)c1F
2. C[C@@H](Nc1nnc(NN2CCOCC2)c2cc(=O)n(C3(C)CC3)cc12)c1cccc(C(F)(F)F)c1 [Example 158, formate]
3. C[C@@H](Nc1nnc(N2CCN(C)CC2)c2cc(=O)n(N3CCN(C)CC3)cc12)c1cccc(C(F)F)c1F
4. C[C@@H](Nc1nnc(N2CC3CN(C)CC3C2)c2cc(=O)n(C3(C)CC3)cc12)c1cccc(C(F)F)c1F (stereo partly shown)
5. CC(C)Nc1nnc(N[C@H](C)c2cccc(C(F)F)c2F)c2cn(C3(C)CC3)c(=O)cc12.O=CO [Example 12, formate]
6. C[C@@H](Nc1nnc(N2CCOCC2)c2cc(=O)n(C3(C)CC3)cc12)c1cccc(C(F)F)c1F

[8.26, 8.16, 8.42, 8.31, 8.31, 7.75]

Items follow; give pIC50 for each.
1. CCN(CC)c1nnc(N[C@H](C)c2cccc(C#N)c2C)c2cn(C3CC3)c(=O)cc12
2. CCN1CCN(c2nnc(N[C@H](C)c3cccc(C(F)(F)CO)c3)c3cn(C4(C)CC4)c(=O)cc23)CC1
3. C[C@@H](Nc1nnc(N2CCN(CCO)CC2)c2cc(=O)n(C3(C)CC3)cc12)c1cccc(C(F)F)c1F
4. C[C@@H](Nc1nnc(N2CCN(C)CC2)c2cc(=O)n(C3CCOC3)cc12)c1cccc(C(F)F)c1F (stereo partly shown)

[7.49, 8.42, 8.41, 8.17]
